- Tested Target: FMDV 3D^pol (Foot-and-mouth disease virus serotype O, UniProt P03305)
- Sequence (P03305 1863-2332 limits assumed): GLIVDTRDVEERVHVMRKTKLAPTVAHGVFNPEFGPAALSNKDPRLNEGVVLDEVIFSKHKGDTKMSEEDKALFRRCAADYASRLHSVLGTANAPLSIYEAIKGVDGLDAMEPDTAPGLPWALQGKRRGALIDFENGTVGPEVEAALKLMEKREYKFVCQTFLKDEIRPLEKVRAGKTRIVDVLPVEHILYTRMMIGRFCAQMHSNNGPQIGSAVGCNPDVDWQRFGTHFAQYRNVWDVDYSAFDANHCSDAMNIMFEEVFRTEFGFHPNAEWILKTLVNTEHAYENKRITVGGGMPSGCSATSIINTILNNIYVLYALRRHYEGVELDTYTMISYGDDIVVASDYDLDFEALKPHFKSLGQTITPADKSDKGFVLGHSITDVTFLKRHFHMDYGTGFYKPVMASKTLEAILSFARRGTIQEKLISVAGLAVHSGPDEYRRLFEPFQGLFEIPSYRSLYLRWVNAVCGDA
- Protocol Summary: cell-based
Result Type: IC50

>>> result("CC(C)c1ccc2c(c1)CC[C@H]1[C@](C)(C(=O)O)CCC[C@]21C [Dehydroabietic acid]")
"> 50 µM"
>>> result("C=CC1(C)C=C2CCC3C(C)(C(=O)O)CCCC3(C)C2CC1 (stereo not drawn) [Continentalic acid]")
"36.9 µM"
>>> result("CC1=C[C@H](O)[C@@H](O)[C@]2(C)[C@H]3[C@@H](O)[C@H](O)[C@@]4(C)OC[C@@]35[C@@H](C[C@@H]12)OC(=O)[C@H](O)[C@]54O [Bruceine E]")
"26.7 µM"

----------
- Test system: FMDV serotype A [A/TAI/NP05/2017 (NP05)]
- Protocol Summary: microbe, parasite or virus in culture
- Type: cell-based, Foot-and-mouth disease virus
- Test Settings: Foot-and-mouth disease virus, BHK-21, 24 h, read-out: Antiviral Activity (EC50) Viral Copy Number (RT-qPCR)
Result Type: EC50 (µM)

>>> recorded_number("C=CC1(C)C=C2CCC3C(C)(C(=O)O)CCCC3(C)C2CC1 (stereo not shown)")
68.3
>>> recorded_number("CC1=C[C@H](O)[C@@H](O)[C@]2(C)[C@H]3[C@@H](O)[C@H](O)[C@@]4(C)OC[C@@]35[C@@H](C[C@@H]12)OC(=O)[C@H](O)[C@]54O")
33.4
>>> recorded_number("NC(=O)c1ncn([C@@H]2O[C@H](CO)[C@@H](O)[C@H]2O)n1 [Ribavirin, reference compound]")
27.7
>>> recorded_number("CC(C)c1ccc2c(c1)CC[C@H]1[C@](C)(C(=O)O)CCC[C@]21C [Dehydroabietic acid]")
64.5

----------
- System: FMDV serotype A [A/TAI/NP05/2017 (NP05)]
- Protocol Summary: microbe, parasite or virus in culture
- Format: cell-based, Foot-and-mouth disease virus
- Test Settings: read-out: Antiviral Activity (EC50) FMDV-Infected Cells (IPMA)
pEC50: −log10 of the molar value.
Result Type: pEC50

>>> recorded_number("CC1=CC(=O)[C@@H](O)[C@]2(C)[C@H]3[C@@H](O)[C@H](O)[C@@]4(C)OC[C@@]35[C@@H](C[C@@H]12)OC(=O)[C@H](O)[C@]54O [Bruceine D]")
6.49

----------
Below are compounds with their log10 CC50 as measured on BHK-21 cells.
Result Type: log10 CC50 (log10 of the value in µM)

>>> recorded_number("C=C1[C@H](OC(=O)c2ccccc2)C[C@H]2[C@@H](/C=C(\\C)C(=O)[C@@]3(OC(C)=O)C[C@H](C)[C@H](OC(=O)c4ccccc4)[C@@H]3[C@H]1OC(C)=O)C2(C)C")
2.06
>>> recorded_number("C=C(C(=O)O)[C@H]1CC[C@H](C)[C@@H]2CC(=O)C(C)=C2C1")
1.86
>>> recorded_number("C[C@@H]1CC[C@]2(C(=O)O)CC[C@]3(C)C(=CC[C@@H]4[C@@]5(C)CC[C@H](O[C@@H]6OC[C@H](O)[C@H](O)[C@H]6O)C(C)(C)[C@@H]5CC[C@]43C)[C@@H]2[C@]1(C)O [Ziyuglycoside II]")
1.76
>>> recorded_number("CC(C)=CCC[C@](C)(O)[C@H]1CC[C@]2(C)[C@@H]1[C@H](O)C[C@@H]1[C@@]3(C)CC[C@H](O[C@@H]4O[C@H](CO)[C@@H](O)[C@H](O)[C@H]4O[C@@H]4O[C@H](CO)[C@@H](O)[C@H](O)[C@H]4O)C(C)(C)[C@@H]3CC[C@]12C [Ginsenoside Rg3]")
2.43
>>> recorded_number("C[C@@H]1C[C@@H]([C@@H](O)C(C)(C)O)O[C@H]2C[C@@]3(C)C(=C12)C[C@H](O)[C@H]1[C@@]2(C)CCC(=O)C(C)(C)[C@@H]2CC[C@@]13C")
1.93
>>> recorded_number("C=C1CC[C@H]2[C@@H](/C=C(\\C)C(=O)[C@@]3(O)C[C@H](C)[C@H](O)[C@@H]3[C@@H]1O)C2(C)C")
2.50
>>> recorded_number("C[C@@H]1CC[C@]2(C(=O)O[C@@H]3O[C@H](CO)[C@@H](O)[C@H](O)[C@H]3O)CC[C@]3(C)C(=CC[C@@H]4[C@@]5(C)C[C@@H](O)[C@H](O)C(C)(C)[C@@H]5CC[C@]43C)[C@@H]2[C@]1(C)O")
2.52
>>> recorded_number("COC(=O)C1=CC[C@@]23CC[C@@H]([C@@](C)(/C=C/C=C(\\C)C(=O)O)OC2=O)[C@@]3(OC(C)=O)CC1")
1.40
>>> recorded_number("CC(C)(O)CCC(=O)[C@](C)(O)C1[C@H](O)C[C@@]2(C)[C@@H]3CC=C4[C@@H](C[C@H](O)[C@@H](O)C4(C)C)[C@]3(C)C(=O)C[C@]12C (stereo partly drawn)")
2.38

----------
- Test system: FMDV serotype A [A/TAI/NP05/2017 (NP05)]
- Protocol Summary: microbe, parasite or virus in culture
- Type: cell-based, Foot-and-mouth disease virus
- Test Settings: read-out: Antiviral Activity (EC50) Viral Copy Number (RT-qPCR)
pEC50: −log10 of the molar value.
Result Type: pEC50

>>> recorded_number("CC1=CC(=O)[C@@H](O)[C@]2(C)[C@H]3[C@@H](O)[C@H](O)[C@@]4(C)OC[C@@]35[C@@H](C[C@@H]12)OC(=O)[C@H](O)[C@]54O")
6.38

----------
- Protocol Summary: in vitro
- Test Settings: hamster
Simple rule here: CC50 less than 100 µM is Fulfilled, otherwise Not fulfilled.

>>> discrete_label("CC(C)c1ccc2c(c1)CC[C@H]1[C@](C)(C(=O)O)CCC[C@]21C [Dehydroabietic acid]")
"Fulfilled"
>>> discrete_label("CC1=C[C@H](O)[C@@H](O)[C@]2(C)[C@H]3[C@@H](O)[C@H](O)[C@@]4(C)OC[C@@]35[C@@H](C[C@@H]12)OC(=O)[C@H](O)[C@]54O")
"Fulfilled"
>>> discrete_label("C[C@@H]1C(=O)O[C@H]2C[C@@]34[C@H]5C[C@@H](C(C)(C)C)[C@]36[C@@H](OC(=O)[C@@H]6O)O[C@@]4(C(=O)O5)[C@]21O [Ginkgolide A]")
"Not fulfilled"
>>> discrete_label("CC(C)[C@]12O[C@H]1[C@@H]1O[C@]13[C@]1(O[C@H]1C[C@H]1C4=C(CC[C@@]13C)C(=O)OC4)[C@@H]2O [Triptolide]")
"Not fulfilled"
>>> discrete_label("CC(C)c1ccc2c(c1O)CC[C@H]1C3=C(CC[C@]21C)C(=O)OC3 [Triptophenolide]")
"Not fulfilled"
>>> discrete_label("CCC(C)(C)C(=O)O[C@H]1C[C@@H](C)C=C2C=C[C@H](C)[C@H](CC[C@@H]3C[C@@H](O)CC(=O)O3)[C@H]21 [Simvastatin, reference compound]")
"Not fulfilled"
>>> discrete_label("CC1(C)O[C@H]2CC(=O)OC[C@]23[C@H]2CC[C@@]4(C)[C@H](c5ccoc5)OC(=O)[C@H]5O[C@]54[C@]2(C)C(=O)C[C@@H]13")
"Not fulfilled"
>>> discrete_label("CC1(C)CCC2(C(=O)O)CCC3(CO)C(=CCC4C5(C)CC(O)C(OC6OC(CO)C(O)C(O)C6O)C(C)(C(=O)O)C5CCC43C)C2C1 (stereo not drawn)")
"Fulfilled"
>>> discrete_label("C=C1C(=O)[C@]23[C@H](O)[C@H]1CC[C@H]2[C@@]12CO[C@]3(O)[C@@H](O)[C@@H]1C(C)(C)CC[C@@H]2O")
"Fulfilled"
>>> discrete_label("C=C[C@@]1(C)CC(=O)[C@]2(O)[C@@]3(C)[C@@H](O)CCC(C)(C)[C@@H]3[C@H](O)[C@H](OC(C)=O)[C@@]2(C)O1")
"Fulfilled"
>>> discrete_label("CC1=C[C@]23C(=O)[C@@H](C=C(CO)[C@@H](O)[C@]2(O)[C@H]1O)[C@H]1[C@@H](C[C@H]3C)C1(C)C")
"Not fulfilled"
>>> discrete_label("CC1(C)O[C@H]2CC(=O)OC[C@]23[C@H]2CC[C@@]4(C)[C@H](c5ccoc5)OC(=O)[C@H]5O[C@]54[C@]2(C)[C@@H](O)C(=O)[C@@H]13")
"Not fulfilled"
>>> discrete_label("NC(=O)c1ncn([C@@H]2O[C@H](CO)[C@@H](O)[C@H]2O)n1 [Ribavirin, reference compound]")
"Not fulfilled"
>>> discrete_label("C[C@H](CC(=O)C[C@@H](C)[C@H]1C[C@H](O)[C@@]2(C)C3=C(C(=O)C[C@]12C)[C@@]1(C)CCC(=O)C(C)(C)[C@@H]1C[C@@H]3O)C(=O)O")
"Not fulfilled"
>>> discrete_label("C=CC1(C)C=C2CCC3C(C)(C(=O)O)CCCC3(C)C2CC1 (stereo not drawn)")
"Fulfilled"
>>> discrete_label("CC(C)=CCC[C@](C)(O)[C@H]1CC[C@]2(C)[C@@H]1[C@H](O)C[C@@H]1[C@@]3(C)CC[C@H](O)C(C)(C)[C@@H]3[C@@H](O[C@@H]3O[C@H](CO)[C@@H](O)[C@H](O)[C@H]3O)C[C@]12C [Ginsenoside Rh1]")
"Not fulfilled"
>>> discrete_label("C=C1C[C@@]23CC[C@H]4[C@@](C)(CCC[C@@]4(C)C(=O)O)[C@@H]2CC[C@@H]1C3")
"Not fulfilled"

The reported measurements were obtained from paper PMC11281344.
